Recorded cell viability values for a group of compounds are listed next.
Test system: MARIMO
ASSAY METHOD TEXT: cell viability relative to vehicle control; higher = less cytotoxic;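 further: after 48 h exposure read by CellTiter-Glo luminescence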
REPORTED CONDITIONS: 10 µM; SRSF2 genotype: SRSF2 P95H/wt
Where a name gives a salt, the structure may show the parent alone.
In your response, put the unit directly after the numeric value.

{"COMPOUND": "Oc1ncnc2[nH]ncc12 [Allopurinol (Zyloprim)]", "TEST VALUE": "97.1%"}
{"COMPOUND": "CCOC(=O)C1=C(N)Oc2ccc(Br)cc2C1C(C#N)C(=O)OCC (configuration not stated)", "TEST VALUE": "65.6%"}
{"COMPOUND": "COc1cc([C@H]2OC[C@H]3[C@@H]2CO[C@@H]3c2ccc(O[C@@H]3O[C@H](CO)[C@@H](O)[C@H](O)[C@H]3O)c(OC)c2)ccc1O[C@@H]1O[C@H](CO)[C@@H](O)[C@H](O)[C@H]1O [Pinoresinol diglucoside]", "TEST VALUE": "105%"}

Prompt: Give the value of cell viability reported for the following: N#C/C(=C(/N)Sc1ccc(N)cc1)c1ccccc1C(F)(F)F
Completion: 54%

Prompt: Give the value of cell viability reported for the following: NC(=O)c1cccc(-c2cc(Nc3ccc(OC(F)(F)F)cc3)ncn2)c1
Completion: 70.1%

Prompt: Give the value of cell viability reported for the following: CC1(C)OC[C@@H](COC(=O)CCc2ccc(OC[C@@H](O)CNCCNC(=O)N3CCOCC3)cc2)O1 [Landiolol hydrochloride]
Completion: 97.6%

Prompt: Give the value of cell viability reported for the following: CC1(C)CC(=O)c2c(C(F)(F)F)nn(-c3ccc(C(N)=O)c(N[C@H]4CC[C@H](O)CC4)c3)c2C1
Completion: 30.9%

* * *

Recorded cell viability values for a group of compounds are listed next.
System: MOLM14
ASSAY METHOD TEXT: cell viability relative to vehicle control; higher = less cytotoxic
REPORTED CONDITIONS: 10 µM; SRSF2 genotype: SRSF2 wt/wt
Where a name gives a salt, the structure may show the parent alone.
Numeric answer only, unit % assumed.

Some solved cases for reference:
{"COMPOUND": "OC[C@H]1O[C@@](CO)(O[C@H]2O[C@H](CO)[C@@H](O)[C@H](O)[C@H]2O)[C@@H](O[C@H]2O[C@H](CO)[C@@H](O)[C@H](O)[C@H]2O)[C@@H]1O [Melezitose]", "cell viability (%)": 104}
{"COMPOUND": "CC(C)c1nc(CN(C)C(=O)N[C@@H](CCN2CCOCC2)C(=O)N[C@H](CC[C@H](Cc2ccccc2)NC(=O)OCc2cncs2)Cc2ccccc2)cs1 [Cobicistat (GS-9350)]", "cell viability (%)": 98.3}
{"COMPOUND": "CCCCC1C(=O)N(c2ccccc2)N(c2ccccc2)C1=O", "cell viability (%)": 99.9}
{"COMPOUND": "CN(C)CC(c1ccc(O)cc1)C1(O)CCCCC1 (configuration not stated) [Desvenlafaxine Succinate]", "cell viability (%)": 100}
{"COMPOUND": "O=C(O)Cc1ccc(O)cc1 [4-Hydroxyphenylacetic acid]", "cell viability (%)": 101}

Prompt: Give the value of cell viability reported for the following: CC1(C)C2CCC1(C)C(O)C2 (single isomer, unassigned; (+)) [(+)-Borneol]
Completion: 103

Prompt: Give the value of cell viability reported for the following: C[C@@H](O)[C@H]1C(=O)N2C(C(=O)O)=C([C@H]3CCCO3)S[C@H]12 [Faropenem Sodium]
Completion: 90.3

Prompt: Give the value of cell viability reported for the following: NCCCC[C@@H]1NC(=O)[C@@H](Cc2ccccc2)NC(=O)[C@H](CC(=O)O)NC(=O)CNC(=O)[C@H](CCCN=C(N)N)NC1=O [Cyclo (-RGDfK)]
Completion: 101

Prompt: Give the value of cell viability reported for the following: Cc1cnc(NC(=O)C2=C(O)c3ccccc3S(=O)(=O)N2C)s1
Completion: 92.7

Prompt: Give the value of cell viability reported for the following: COc1cc(NC(=O)c2ccc(-c3ccc(Cl)cc3)o2)cc(OC)c1
Completion: 115

Prompt: Give the value of cell viability reported for the following: CCCc1cc(C)[nH]c(=O)c1CNC(=O)c1cc(-c2ccc(N3CCN(C(C)C)CC3)nc2)cc2c1cnn2C(C)C
Completion: 60.8

Prompt: Give the value of cell viability reported for the following: Cc1nc(-c2cn3c(n2)-c2ccc(-c4cnn(C(C)(C)C(N)=O)c4)cc2OCC3)n(C(C)C)n1
Completion: 40.1

Prompt: Give the value of cell viability reported for the following: NC(CO)C(=O)NNCc1ccc(O)c(O)c1O (configuration not stated) [Benserazide HCl]
Completion: 71.6

Prompt: Give the value of cell viability reported for the following: CCCCCCCCCCCCCCCCCC[N+](C)(C)C [Trimethyloctadecylammonium bromide]
Completion: 0.49
